Record form. Attribute: Growth Rate. Fill in for each entry.
- Test system: U2OS
- testMethodNotes: Incucyte cell viability with U2OS; note: unitless GR value; below 1 slowed growth and below 0 cell loss
- Type: toxicity, cell-based
- runConditions: human, 0 h, 10 µM, compound concentration 10 uM, replicate number 2
Respond with the number and no other words.

Growth Rate in this record for CC(=O)N1CCC(c2ccc(C(=O)NC(=N)N)cc2C(F)(F)F)CC1 : 0.44

Growth Rate in this record for Cl.O=C(c1ccc(-c2ccc(Cl)cc2)o1)N(Cc1ccccn1)c1ccc(N2CCNCC2)cc1 : -0.97

Growth Rate in this record for O=C(O)C(F)(F)F.O=C1NC(=O)/C(=C/c2c[nH]c(=O)c(-c3ccc(N4CCNCC4)nc3)c2)S1 : -0.63

Growth Rate in this record for CCn1cnc2c(-c3ccc(F)c(-c4ccc(S(=O)(=O)CC)cc4OC)c3)cnnc21 : -0.95

Growth Rate in this record for COc1ccc(-c2coc3cc(O)cc(O)c3c2=O)cc1 : -0.91

Growth Rate in this record for CCCCC[C@H](O)/C=C/[C@H]1[C@H](O)CC(=O)[C@@H]1CCCCCCC(=O)O : 0.57

Growth Rate in this record for Clc1ccccc1C(c1ccccc1)(c1ccccc1)n1cccn1 : -0.86

Growth Rate in this record for COc1cccc(-c2c(C)c(Cc3c(F)cccc3C(F)(F)F)c3n(c2=O)[C@@H]([C@@H](N)c2ccccc2)CS3)c1F : -0.8

Growth Rate in this record for Cn1c(SCc2ccc(C(C)(C)C)cc2)nc(N)cc1=O : -0.65

Growth Rate in this record for C[C@H](CCOc1cccc(CC(=O)O)c1)N(Cc1cccc(C(F)(F)F)c1Cl)CC(c1ccccc1)c1ccccc1.Cl : -0.96

Growth Rate in this record for O=C1CCC(N2Cc3cc(CNC(=O)C(F)(F)c4ccc(Cl)cc4)ccc3C2=O)C(=O)N1 (configuration not stated) : 0.39

Growth Rate in this record for Cc1ccc(NC(=O)c2ccc3cnccc3c2)cc1C(=O)Nc1cnc(Nc2cccc(NC3CCN(C(=O)/C=C/CN(C)C)CC3)c2)nc1 : -0.97

Growth Rate in this record for CC[C@@H]1C(=O)N(C)c2cnc(Nc3ccc(C(=O)NC4CCN(C)CC4)cc3OC)nc2N1C1CCCC1 : 0.33

Growth Rate in this record for C[C@@H](NC(=O)Cc1ccc(C2CC2)cc1)c1ccc(OCC(F)(F)F)cn1 : -0.85

Growth Rate in this record for CO[C@H](C)CN1CC[C@]2(C)c3cccc(O)c3C[C@H]1C2(C)C.Cl : -0.73

Growth Rate in this record for CC(C)(C)c1cnc(CSc2cnc(NC(=O)C3CCNCC3)s2)o1 : 0.54

Growth Rate in this record for CCOC(=O)c1cncn1[C@H](C)c1ccccc1 [ETOMIDATE] : -0.28

###

Record form. Attribute: Growth Rate. Fill in for each entry.
- Test system: U2OS
- testMethodNotes: Incucyte cell viability with U2OS; note: unitless GR value; below 1 slowed growth and below 0 cell loss
- Type: toxicity, cell-based
- runConditions: human, 0 h, 10 µM, compound concentration 10 uM, replicate number 2
Numbered stars: 1 amine (or outer) side, 2 acyl side, 3 side chain; on linkers, the order of the positions; unused ones are H or OH. Bridge positions count the residues as written; N and C are the ends. Square brackets hold non-standard residues; d marks the D form. Peptide text beside a SMILES is read from it. I, II: the chains in the order shown. Hexamethylenediamine = C(CCCN[*:2])CCN[*:1]; Dip = N[C@H](C(=O)O)C(c1ccccc1)c1ccccc1; Chg = N[C@H](C(=O)O)C1CCCCC1; NMeA = CN[C@@H](C)C(=O)O
Respond with the number and no other words.

Growth Rate in this record for Cn1cnc(Cn2ccc3ccc(CNCc4[nH]c5ccccc5c4[C@H]4NC(=O)c5ccc(O)cc54)cc32)c1 : 0.28

Growth Rate in this record for CNC(=O)c1ccc(C)c(-n2c(C)cc(OCc3ccc(F)cc3F)c(Br)c2=O)c1 [PH-797804] : 0.65

Growth Rate in this record for CCc1cncnc1N1CCN(Cc2nc3cc(C(F)(F)F)ccc3[nH]2)CC1 : -0.83

Growth Rate in this record for CC/C(=C(\c1ccccc1)c1ccc(OCCN(C)C)cc1)c1ccccc1.O=C(O)CC(O)(CC(=O)O)C(=O)O [TAMOXIFEN CITRATE] : 0.89

Growth Rate in this record for CNC(=O)c1c(F)cccc1Nc1nc(Nc2cc3c(cc2OC)CCN3C(=O)CN(C)C)nc2[nH]ccc12 : -1

Growth Rate in this record for CC(C)(C)c1ccc(-c2coc3ccc(-c4cn[nH]c4)nc23)cc1 : -0.87

Growth Rate in this record for CN[C@@H](C)C(=O)N[C@H](C(=O)N1CCC[C@H]1C(=O)N[C@H](C(=O)NCCCCCCNC(=O)[C@@H](NC(=O)[C@@H]1CCCN1C(=O)[C@@H](NC(=O)[C@H](C)NC)C1CCCCC1)C(c1ccccc1)c1ccccc1)C(c1ccccc1)c1ccccc1)C1CCCCC1 (I: H-[NMeA][Chg]P[Dip] / II: H-[NMeA][Chg]P[Dip]; linker I:C-II:C via Hexamethylenediamine) : -0.47

Growth Rate in this record for C=CC(=O)Nc1cccc(C(=O)Nc2ccc(NC(=O)c3cccc(-c4ccn[nH]4)n3)cc2)c1 : -0.56

Growth Rate in this record for COc1ccc(-c2csc(NC(=O)[C@H]3CCCCN3S(=O)(=O)c3ccc(C)cc3)n2)cc1 : -0.9

Growth Rate in this record for Cl.O=C(NCCN1CCC2(CC1)C(=O)NCN2c1cccc(F)c1)c1ccc2ccccc2c1 : -0.98

Growth Rate in this record for Cc1ccc(-n2nc(C(C)(C)C)cc2NC(=O)Nc2ccccc2F)cc1 : -0.52

Growth Rate in this record for CC[N+](CC)(CC)CCOc1ccc(/C=C/c2ccccc2)cc1.[I-] [STILONIUM IODIDE] : -0.99

Growth Rate in this record for C[C@@]1(Cc2ccc(C#N)cc2)C(=O)N(c2cc(Cl)cc(Cl)c2)c2ncc(C(=O)NC3(c4nc(C5CCC5)no4)CC3)n21 [BI 9446] : 0.34

Growth Rate in this record for CCNCCNC(=O)c1c(C)[nH]c(/C=C2\C(=O)Nc3ccc(F)cc32)c1C : -0.6

Growth Rate in this record for CC[C@@H](C(=O)OC)n1c(=O)c2ccccc2n(Cc2cn(C)c3cccc(C)c23)c1=O : 0.16

Growth Rate in this record for COc1cc(Nc2ccc([N+](=O)[O-])cc2C(=O)O)cc2ccccc12 : -0.1

Growth Rate in this record for COC(=O)c1cc2c(cn1)[nH]c1ccccc12 [BETA-CCM] : -0.72

Growth Rate in this record for Cc1cccc(-c2nn(C(=S)Nc3ccccc3)cc2-c2ccnc3ccccc23)n1 : -0.94

Growth Rate in this record for CC(C)NC(=O)[C@H]1CCC[C@H]1Nc1nc(Nc2ccc(CN(C)C)cc2)ncc1Br.Cl : 0.74

Growth Rate in this record for CC1(C)C(=O)N([C@H]2CCc3c(O)cccc32)c2nc(Nc3cccc(CN4CCCC4)c3)ncc21 : 0.2

###

Record form. Attribute: Growth Rate. Fill in for each entry.
- System: U2OS
- testMethodNotes: Incucyte cell viability with U2OS; note: unitless GR value; below 1 slowed growth and below 0 cell loss
- Format: toxicity, cell-based
- runConditions: human, 12 h, 10 µM, compound concentration 10 uM, replicate number 2
Respond with the number and no other words.

Growth Rate in this record for CC(C)(O)c1cn(-c2ccc(-c3cccc(S(C)(=O)=O)c3)cc2)c(C(C)(C)c2ccccc2Cl)n1 [BMS-779788] : 0.79

Growth Rate in this record for COCc1c(-c2cc3cc(C)cc(OC)c3s2)c2c(N)ncnn2c1CN[C@@H]1CCNC1=O : 0.77

Growth Rate in this record for O=C(NC[C@@H]1[C@H]2CN(C(=O)OCc3cc(C(F)(F)F)cc(C(F)(F)F)c3)C[C@@H]12)c1ccc2[nH]nnc2c1 [BI 2545] : -0.13

Growth Rate in this record for Nc1ccc(S(=O)(=O)Nc2ccnn2-c2ccccc2)cc1 [SULFAPHENAZOLE] : 1

Growth Rate in this record for C=CC(=O)Nc1ccc2[nH]c(=O)n(C3CCN(Cc4ccc(-c5ccc6c(c5)NC(=O)CO6)cc4)CC3)c2c1 [RL2578] : 0.91

Growth Rate in this record for CS(=O)(=O)c1cc(C2(NC(=O)c3cncc4c3cnn4-c3ccc(F)cc3)CC2)ccn1 [BI 639667] : 0.76

Growth Rate in this record for CCCCCCCC/C=C\CCCCCCCC(=O)NCCO [OLEOYLETHANOLAMIDE] : 0.68

Growth Rate in this record for CN1C(=O)c2ccccc2N(C)c2nc(Nc3cnn(C4CCNCC4)c3)ncc21 : 0.18

Growth Rate in this record for Cc1nnc2n1-c1sc(CCC(=O)N3CCOCC3)cc1C(c1ccccc1Cl)=NC2 [APAFANT] : 0.76

Growth Rate in this record for Cc1nc2ccccc2c(-c2ccc3c4c(ccnc24)CCO3)c1[C@H](OC(C)(C)C)C(=O)O [BI-224436] : 0.72

Growth Rate in this record for CC(=O)c1c(C)c2cnc(Nc3ccn(C)n3)nc2n(C2CCCC2)c1=O : 0.99

Growth Rate in this record for Nc1ncnc2c1c(I)cn2[C@@H]1O[C@H](CO)[C@@H](O)[C@H]1O [IODOTUBERCIDIN] : -0.14

Growth Rate in this record for CCN(C(=O)c1cc(F)ccc1Oc1cncnc1N1CC2(CCN(C[C@H]3CC[C@H](NS(=O)(=O)CC)CC3)CC2)C1)C(C)C [REVUMENIB] : 0.79

Growth Rate in this record for N[C@@H](Cn1cc(F)c(=O)[nH]c1=O)C(=O)O : 0.81

Growth Rate in this record for Oc1cccc(Nc2ccnc3[nH]c4ccccc4c23)c1 : 0.91

Growth Rate in this record for Cc1onc(O)c1CC(N)C(=O)O [(R,S)-AMPA] : 0.82

Growth Rate in this record for Cn1c(=O)n(CCCO)c(=O)c2c1nc(Oc1cccc(Cl)c1)n2Cc1ccc(Cl)cc1 : 0.93

Growth Rate in this record for Cc1ccc(-n2nc(C(C)(C)C)cc2NC(=O)Nc2ccccc2F)cc1 : 0.72

Growth Rate in this record for O=C(NC1CCNCC1)c1n[nH]cc1NC(=O)c1c(Cl)cccc1Cl [AT-7519] : 0.4

Growth Rate in this record for CSc1nc2c(c(=O)n(C)c(=O)n2C)n1C : 0.74

Growth Rate in this record for CCn1cnc2c(-c3ccc(F)c(-c4ccc(S(=O)(=O)CC)cc4OC)c3)cnnc21 [DARIGABAT] : -0.46
